Entries and their OD650 in inhibition assay
System name: T1, human Angiopoietin-2 (human, UniProt O15123 19-496)
T1 construct: Mostly bought recombinant protein (R&D Systems 623-AM/CF, 623-AN; biotinylated BT623) or supernatant of transfected 293F cells; also called Ang-2; rhAng-2
T1 sequence: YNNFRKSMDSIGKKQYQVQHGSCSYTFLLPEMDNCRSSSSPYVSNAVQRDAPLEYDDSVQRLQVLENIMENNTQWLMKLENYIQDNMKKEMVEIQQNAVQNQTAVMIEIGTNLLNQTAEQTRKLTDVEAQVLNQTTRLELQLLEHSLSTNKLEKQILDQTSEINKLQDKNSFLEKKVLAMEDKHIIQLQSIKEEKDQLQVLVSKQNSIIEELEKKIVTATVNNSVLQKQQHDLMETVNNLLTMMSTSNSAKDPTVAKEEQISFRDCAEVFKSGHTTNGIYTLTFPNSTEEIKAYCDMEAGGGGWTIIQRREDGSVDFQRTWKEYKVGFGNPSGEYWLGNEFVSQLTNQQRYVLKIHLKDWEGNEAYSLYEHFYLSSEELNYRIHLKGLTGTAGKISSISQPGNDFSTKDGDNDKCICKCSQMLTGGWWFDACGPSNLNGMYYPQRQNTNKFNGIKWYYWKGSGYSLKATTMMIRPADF
Procedure summary: inhibition of rhAng-2 binding to its receptor; note: test concentration or dose not given here
# unit: OD650 | format: bare number

{"Binder": "mAb 5.56.1 (antibody, V domains shown, Human hybridoma IgG (XenoMouse); also called x5.56) VH: QVQLVESGGGVVQPGRSLRLSCAASGFTFSSYGMHWVRQAPGKGLEWVAVIWYDGSNKYYADSVKGRFTISRDNSKNTLYLQMNSLRAEDTAVYYCAREDNWNFYFDYWGQGTLVTVSS VL: DIQMTQSPSSLSASVGDRVTITCRASQGISYYLAWYQQKPGKVPKLLIYAASTLQSGVPSRFSGSGSGTDFTLTISSLQPEDVATYYCQKYNSAPFTFGPGTKVDIKR", "Endpoint unit": "OD650", "OD650 in inhibition assay": 0.0863}

Entry under review: mAb 5.62.1 (antibody, V domains shown, Human hybridoma IgG (XenoMouse); also called x5.62) VH: EVQLVESGGGLVQPGGSLRLSCAASGFTFSSYWMSWVRQAPGKGLEWVANIKQDGSEKYYVDSVKGRFTISRDNAKNSLYLQMNSLRAEDTAVYYCARDPGIAVAGPFDYWGQGTLVTVSS VL: EIVMTQSPATLSVSPGERATLSCRASQSVSSNLAWYQQKPGQAPRLLIYGAFTRATGIPARFSGSGSGTEFTLTISSLQSEDFAVYYCQQYNHWWTFGQGTKVGIKR . Reported OD650 in inhibition assay?
0.065
